# assay: Half life period in rat
# Assay type: ADME, organism-based
# recorded conditions: in vivo
measurement name: half-life (h)
Express it in h; write the number only.

Answered cases to consult:
Cc1cc(C)cc(C/N=C(\N)c2ccc(OC(F)(F)F)cc2)c1 : 1.53
NC(=NCc1ccccc1C(F)(F)F)c1ccc(OC(F)(F)F)cc1 : 2.45
N=C(NCc1cc(Cl)cc(Cl)c1)c1ccc(OC(F)(F)F)cc1 : 7
NC(=NCc1cccc(Cl)c1)c1ccc(Cl)c(Cl)c1 : 1.5

*Q* What measured half-life goes with `N=C(NCc1ccccc1OC(F)(F)F)c1ccc(Cl)c(Cl)c1` ?
*A* 3.05

----------
# system tested: Glutamate receptor ionotropic, NMDA 2B (Homo sapiens, UniProt Q05586+Q13224)
# Sequence (Q13224 whole entry, one chain of several): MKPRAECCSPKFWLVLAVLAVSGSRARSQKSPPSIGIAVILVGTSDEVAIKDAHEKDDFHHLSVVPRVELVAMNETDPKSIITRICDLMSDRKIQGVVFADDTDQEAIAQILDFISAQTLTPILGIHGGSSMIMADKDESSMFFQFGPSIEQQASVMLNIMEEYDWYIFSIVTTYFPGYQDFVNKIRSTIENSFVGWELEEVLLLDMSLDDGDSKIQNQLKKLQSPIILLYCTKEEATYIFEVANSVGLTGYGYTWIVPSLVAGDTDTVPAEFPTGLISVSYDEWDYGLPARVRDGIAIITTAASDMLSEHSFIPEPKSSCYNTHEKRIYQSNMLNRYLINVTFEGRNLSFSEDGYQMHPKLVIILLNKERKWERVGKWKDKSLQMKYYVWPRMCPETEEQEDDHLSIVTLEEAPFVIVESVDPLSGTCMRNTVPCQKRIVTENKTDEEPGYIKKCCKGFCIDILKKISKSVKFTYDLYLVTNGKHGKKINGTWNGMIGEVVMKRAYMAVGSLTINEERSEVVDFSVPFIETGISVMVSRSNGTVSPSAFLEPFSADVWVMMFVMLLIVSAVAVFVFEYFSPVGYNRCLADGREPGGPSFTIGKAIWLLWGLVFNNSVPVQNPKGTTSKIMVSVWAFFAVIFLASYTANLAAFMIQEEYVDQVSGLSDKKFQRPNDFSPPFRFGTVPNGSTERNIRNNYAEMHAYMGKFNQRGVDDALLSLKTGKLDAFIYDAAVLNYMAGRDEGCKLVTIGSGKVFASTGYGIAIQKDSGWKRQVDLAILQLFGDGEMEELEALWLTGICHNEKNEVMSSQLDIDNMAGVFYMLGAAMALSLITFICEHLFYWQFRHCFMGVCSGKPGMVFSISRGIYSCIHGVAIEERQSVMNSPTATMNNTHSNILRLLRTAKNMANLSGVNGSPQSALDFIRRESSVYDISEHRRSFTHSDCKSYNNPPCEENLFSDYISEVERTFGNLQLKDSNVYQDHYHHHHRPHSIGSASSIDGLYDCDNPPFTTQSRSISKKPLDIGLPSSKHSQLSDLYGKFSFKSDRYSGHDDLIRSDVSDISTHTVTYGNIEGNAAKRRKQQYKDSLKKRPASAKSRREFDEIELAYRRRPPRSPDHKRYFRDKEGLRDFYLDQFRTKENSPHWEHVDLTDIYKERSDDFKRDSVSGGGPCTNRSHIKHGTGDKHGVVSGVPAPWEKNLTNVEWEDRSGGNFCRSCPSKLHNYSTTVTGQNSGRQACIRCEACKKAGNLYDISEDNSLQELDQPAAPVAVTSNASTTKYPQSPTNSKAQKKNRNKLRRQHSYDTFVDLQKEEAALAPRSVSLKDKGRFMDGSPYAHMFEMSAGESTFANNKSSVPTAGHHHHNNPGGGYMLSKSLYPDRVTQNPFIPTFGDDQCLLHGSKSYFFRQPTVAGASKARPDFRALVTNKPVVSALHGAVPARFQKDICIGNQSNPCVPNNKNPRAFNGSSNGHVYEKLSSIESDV
# assay: Inhibition of the response to NMDA glutamate/glycine receptor NR2B subtype was determined using FLIPR assay
measurement name: log10(IC50) (log10 of the value in nM)
Recorded IC50 (log10, nM)

NC(=NCc1cccc(Cl)c1)c1cccc(Cl)c1 : 2.62
N=C(NCc1ccccc1Cl)c1ccc(C(F)(F)F)cc1 : 1.68
NC(=NCc1cccc(Cl)c1)c1ccc(C(F)(F)F)cc1 : 1.51
NC(=NCc1cccc(Cl)c1)c1ccc(Cl)c(Cl)c1 : 2.04

*Q* Provide the documented log10(IC50) with Glutamate receptor ionotropic, NMDA 2B (Homo sapiens, UniProt Q05586+Q13224) as the system for `N=C(NCc1cccc(Cl)c1)c1ccc(F)cc1`
*A* 2.65

*Q* Also `Cc1cc(C)cc(C/N=C(\N)c2ccc(OC(F)(F)F)cc2)c1` ?
*A* 0.62

----------
# system tested: Glutamate receptor ionotropic, NMDA 2B (Homo sapiens, UniProt Q05586+Q13224)
# assay: Displacement of NMDA receptor-specific [3H]ifenprodil binding to recombinant human NMDA receptor, NR2B subtype expressed in L cells
In this section we review reported pKi values for a set of compounds.
Formally, pKi is defined as -log10 of the concentration c, with c in mol/L.

NC(=NCc1ccccc1)c1ccc(Cl)cc1 : 6.01
NC(=NCc1cccc(Cl)c1)c1ccccc1Cl : 5.41
N=C(NCc1cccc(Cl)c1)c1ccc(Cl)cc1 : 7.20
N=C(/C=C/c1ccccc1)NCc1ccccc1 : 8.05
N=C(NCc1ccccc1)c1ccc(C(F)(F)F)cc1 : 6.32

*Q* What measured pKi goes with `COc1ccc(C/N=C(\N)c2ccc(OC(F)(F)F)cc2)cc1` ?
*A* 5.96

*Q* Also `N=C(NCc1ccccc1)c1ccc(OC(F)(F)F)cc1` ?
*A* 6.92

*Q* Also `N=C(NCc1cccc(C(F)(F)F)c1)c1ccc(C(F)(F)F)cc1` ?
*A* 6.15

*Q* Also `NC(=NCc1cccc(Cl)c1)c1cccc(Cl)c1` ?
*A* 6.10

*Q* Also `N=C(NCc1cccc(Cl)c1)c1ccc(F)cc1` ?
*A* 6.22

*Q* Also `N=C(NCc1ccccc1Cl)c1ccc(C(F)(F)F)cc1` ?
*A* 7.25

*Q* Also `NC(=NCc1ccccc1C(F)(F)F)c1ccc(OC(F)(F)F)cc1` ?
*A* 7.14

----------
In this section we review reported bioavailability values for a set of molecules.
# assay: Bioavailability in rat
# Format: ADME, organism-based
# recorded conditions: in vivo
Express it in %; write the number only.

N=C(NCc1cc(Cl)cc(Cl)c1)c1ccc(OC(F)(F)F)cc1 : 68
Cc1cc(C)cc(C/N=C(\N)c2ccc(OC(F)(F)F)cc2)c1 : 4
N=C(NCc1ccccc1OC(F)(F)F)c1ccc(Cl)c(Cl)c1 : 31
NC(=NCc1ccccc1C(F)(F)F)c1ccc(OC(F)(F)F)cc1 : 100

# ---- query molecule ----
*Q* What measured bioavailability goes with `NC(=NCc1cccc(Cl)c1)c1ccc(Cl)c(Cl)c1` ?
*A* 44
